Listed here: items and their measured IC50.
Molecular target: human plasma kallikrein (Homo sapiens, UniProt P03952)
Sequence (P03952 391-638 limits assumed): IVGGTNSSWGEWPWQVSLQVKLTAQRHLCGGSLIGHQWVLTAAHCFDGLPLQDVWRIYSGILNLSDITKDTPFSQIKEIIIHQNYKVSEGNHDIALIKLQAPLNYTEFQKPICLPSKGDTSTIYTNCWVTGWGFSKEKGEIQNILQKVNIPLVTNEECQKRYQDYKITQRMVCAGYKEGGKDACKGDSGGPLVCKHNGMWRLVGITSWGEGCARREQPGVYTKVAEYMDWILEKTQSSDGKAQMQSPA
Sequence (P03952 20-390 partner limits assumed): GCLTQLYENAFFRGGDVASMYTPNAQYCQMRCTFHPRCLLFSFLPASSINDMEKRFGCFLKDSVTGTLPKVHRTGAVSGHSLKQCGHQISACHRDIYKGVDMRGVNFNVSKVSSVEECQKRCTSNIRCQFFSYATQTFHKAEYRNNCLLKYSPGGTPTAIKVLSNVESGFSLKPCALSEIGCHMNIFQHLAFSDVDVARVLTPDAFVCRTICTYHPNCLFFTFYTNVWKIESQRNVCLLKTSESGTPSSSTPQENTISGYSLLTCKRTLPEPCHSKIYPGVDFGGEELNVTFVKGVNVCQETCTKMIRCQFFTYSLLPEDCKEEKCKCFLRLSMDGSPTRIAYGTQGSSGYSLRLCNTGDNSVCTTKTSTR
Assay: Determination of the plasma kallikrein activity (fluorogenic peptide substrate, AMC cleavage)
Format: biochemical
Settings: plasma kallikrein from Kordia 0.6 nM; substrate H-Pro-Phe-Arg-AMC; 30 min at 22° C.; read-out: IC50 [nM] (Table B, plasma kallikrein inhibition)
A number alone suffices; assume nM.

{"MOLECULE": "COc1cn(C(CCOCC(F)F)C(=O)Nc2ccc(C(N)=O)c(F)c2)c(=O)cc1-c1cc(Cl)ccc1C#N (racemic)", "MEASURED VALUE": 12}

Look up and report IC50, with human plasma kallikrein (Homo sapiens, UniProt P03952) as system, for COc1cn(C(Cc2cnco2)C(=O)Nc2ccc(C(N)=O)c(F)c2)c(=O)cc1-c1cc(Cl)ccc1C#N (single isomer, unassigned) [Example 45]
4

Look up and report IC50, with human plasma kallikrein (Homo sapiens, UniProt P03952) as system, for CCC(C(=O)Nc1ccc(C(=O)NC)c(F)c1)n1cc(OC)c(-c2cc(Cl)ccc2C#N)cc1=O (stereo not drawn)
30

* * *

Target: human plasma kallikrein (Homo sapiens)
Experiment: Determination of the plasma kallikrein activity (fluorogenic peptide substrate, AMC cleavage)
Format: biochemical
Conditions: plasma kallikrein from Kordia 0.6 nM; substrate H-Pro-Phe-Arg-AMC; 30 min at 22° C.; read-out: IC50 [nM] (Table B, plasma kallikrein inhibition)
RECORDED ENDPOINT: log10(IC50) (log10 of the value in nM)
Log10 applied to IC50; unit prior to transform: nM.

Give the reported value of log10(IC50) for this record: COc1cn(C(Cc2cocn2)C(=O)Nc2ccc(C(N)=O)c(F)c2)c(=O)cc1-c1cc(Cl)ccc1C#N (stereo not drawn)
1.52

* * *

Listed here: items and their measured IC50.
Molecular target: human factor XIa (Homo sapiens)
Construct: purchased Kordia
Assay: Measurement of FXIa inhibition (fluorogenic peptide substrate, AMC cleavage)
Type: biochemical
Conditions: factor XIa from Kordia 0.45 nM; substrate Boc-Glu(OBzl)-Ala-Arg-AMC; 30 min at 22° C.
A number alone suffices; assume nM.

Give the reported value of IC50 for this record: COc1cn(C(Cc2nnc(C)o2)C(=O)Nc2ccc(C(N)=O)c(F)c2)c(=O)cc1-c1cc(Cl)ccc1C#N (racemic) [Example 35]
12

* * *

Target: human factor XIa (Homo sapiens, UniProt P03951)
Construct: purchased Kordia
Sequence (P03951 388-625 limits assumed): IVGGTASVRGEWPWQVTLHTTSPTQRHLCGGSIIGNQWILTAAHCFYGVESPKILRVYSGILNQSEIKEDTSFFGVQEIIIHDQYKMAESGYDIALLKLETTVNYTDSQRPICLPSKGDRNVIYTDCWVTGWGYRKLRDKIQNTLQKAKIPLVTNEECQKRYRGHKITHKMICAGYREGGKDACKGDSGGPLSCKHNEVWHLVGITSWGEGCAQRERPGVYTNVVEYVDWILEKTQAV
Sequence (P03951 19-387 partner limits assumed): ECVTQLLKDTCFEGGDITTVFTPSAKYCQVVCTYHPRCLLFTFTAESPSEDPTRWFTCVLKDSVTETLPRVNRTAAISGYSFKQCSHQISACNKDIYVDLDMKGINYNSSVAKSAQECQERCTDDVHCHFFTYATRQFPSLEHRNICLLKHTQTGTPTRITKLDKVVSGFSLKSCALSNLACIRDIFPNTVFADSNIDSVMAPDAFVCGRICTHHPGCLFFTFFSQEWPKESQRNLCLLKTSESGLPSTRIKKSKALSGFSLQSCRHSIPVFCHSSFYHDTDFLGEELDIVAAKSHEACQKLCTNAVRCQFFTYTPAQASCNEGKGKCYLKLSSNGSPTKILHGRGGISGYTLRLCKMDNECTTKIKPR
Assay: Measurement of FXIa inhibition (fluorogenic peptide substrate, AMC cleavage)
Assay type: biochemical
Details: factor XIa from Kordia 0.45 nM; substrate Boc-Glu(OBzl)-Ala-Arg-AMC; 30 min at 22° C.
Method: The factor XIa inhibition of the substances according to the invention is determined using a biochemical test system which utilizes the reaction of a peptidic factor XIa substrate to determine the enzymatic activity of human factor XIa. Here, factor XIa cleaves from the peptic factor XIa substrate the C-terminal aminomethylcoumarin (AMC), the fluorescence of which is measured. The determinations are carried out in microtitre plates. […]
RECORDED ENDPOINT: IC50

Solved entries:
{"MOLECULE": "CCC(C(=O)Nc1ccc(C(=O)NC)cc1)n1cc(OC)c(-c2cc(Cl)ccc2C#N)cc1=O (racemic)", "RECORDED ENDPOINT": "IC50", "MEASURED VALUE": "20 nM"}
{"MOLECULE": "COc1cn(C(Cc2cccnc2)C(=O)Nc2ccc(C(N)=O)c(F)c2)c(=O)cc1-c1cc(Cl)ccc1C#N (stereo not drawn)", "RECORDED ENDPOINT": "IC50", "MEASURED VALUE": "11 nM"}
{"MOLECULE": "COc1cn(C(Cc2ccccn2)C(=O)Nc2ccc(C(N)=O)c(F)c2)c(=O)cc1-c1cc(Cl)ccc1C(F)F (racemic)", "RECORDED ENDPOINT": "IC50", "MEASURED VALUE": "42 nM"}
{"MOLECULE": "COc1cn(C(Cc2ccccn2)C(=O)Nc2ccc(C(N)=O)c(F)c2)c(=O)cc1-c1cc(Cl)ccc1C#N (stereo not drawn) [Example 12]", "RECORDED ENDPOINT": "IC50", "MEASURED VALUE": "11 nM"}
{"MOLECULE": "COc1cn(C(Cc2cc(C)no2)C(=O)Nc2ccc(C(N)=O)c(F)c2)c(=O)cc1-c1cc(Cl)ccc1F (stereo not drawn)", "RECORDED ENDPOINT": "IC50", "MEASURED VALUE": "200 nM"}

Give the reported value of IC50 for this record: CNC(=O)c1ccc(NC(=O)C(C[C@@H]2CCCCO2)n2cc(Cl)c(-c3cc(Cl)ccc3C#N)cc2=O)cc1F (stereo partly drawn)
28 nM

Give the reported value of IC50 for this record: N#Cc1ccc(Cl)cc1-c1cc(=O)n(C(C[C@@H]2CCCCO2)C(=O)Nc2ccc(C(N)=O)c(F)c2)cc1Cl (stereo partly drawn)
25 nM

Give the reported value of IC50 for this record: N#Cc1ccc(Cl)cc1-c1cc(=O)n(C(Cc2cocn2)C(=O)Nc2ccc(C(N)=O)c(F)c2)cc1Cl (stereo not drawn)
190 nM

Give the reported value of IC50 for this record: COc1cn(C(CCOC(C)C)C(=O)Nc2ccc(C(N)=O)c(F)c2)c(=O)cc1-c1cc(Cl)ccc1C#N (racemic)
12.5 nM

Give the reported value of IC50 for this record: CCC(C(=O)Nc1ccc(C(=O)NC)c(F)c1)n1cc(OC)c(-c2cc(Cl)ccc2C#N)cc1=O (stereo not drawn)
12 nM

Give the reported value of IC50 for this record: COc1cc(NC(=O)C(Cc2ccn(C)n2)n2cc(OC)c(-c3cc(Cl)ccc3C#N)cc2=O)ccc1C(N)=O (racemic)
8.9 nM

Give the reported value of IC50 for this record: COc1cn(C(CCOCC(F)F)C(=O)Nc2ccc(C(N)=O)c(F)c2)c(=O)cc1-c1cc(Cl)ccc1C#N (racemic)
21 nM

Give the reported value of IC50 for this record: CCC(C(=O)Nc1ccc(C(N)=O)c(F)c1)n1cc(OC)c(-c2cc(Cl)ccc2C#N)cc1=O (stereo not drawn)
25 nM

Give the reported value of IC50 for this record: COc1cn(C(Cc2cc(C)no2)C(=O)Nc2ccc(C(N)=O)c(F)c2)c(=O)cc1-c1cc(Cl)ccc1C#N (racemic)
13 nM

Give the reported value of IC50 for this record: COc1cn(C(Cc2coc(C)n2)C(=O)Nc2ccc(C(N)=O)c(F)c2)c(=O)cc1-c1cc(Cl)ccc1C#N (racemic)
28 nM

Give the reported value of IC50 for this record: COCCC(C(=O)Nc1ccc(C(N)=O)c(F)c1)n1cc(OC)c(-c2cc(Cl)c(F)cc2C#N)cc1=O (racemic)
310 nM

Give the reported value of IC50 for this record: COc1cn(C(Cc2ccccn2)C(=O)Nc2ccc(C(N)=O)c(F)c2)c(=O)cc1-c1cc(Cl)ccc1C#N (single isomer, unassigned) [Example 28]
6.6 nM
